Tested on: LOC_OS01G13800-cb001
Assay: thermal shift delta Tm vs DMSO control; higher = stronger stabilization (binding);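 also: purified Escherichia coli-expressed rice kinase domain construct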
Settings: 12.5 µM; protein concentration 2 µM
Reported thermal shift delta Tm maps to class as: I = under -0.04 °C, II = from -0.04 °C up to 0.4 °C, III = 0.4 °C and over

- molecule: "CC1(C)OCCn2c1nc1c(N3CCOCC3)nc(-c3cnc(N)nc3)nc12"
  tested_system: "LOC_OS01G13800-cb001"
  class_name: "II"
- molecule: "Cc1ccc(C(=O)Nc2cccc(C(F)(F)F)c2)cc1Nc1nc(-c2cccnc2)nc2c1cnn2C"
  tested_system: "LOC_OS01G13800-cb001"
  class_name: "III"
- molecule: "CN1CCN(c2ccc3nc(-c4c(N)c5c(F)cccc5[nH]c4=O)[nH]c3c2)CC1 [Dovitinib (TKI258) Lactate]"
  tested_system: "LOC_OS01G13800-cb001"
  class_name: "III"

Asked: Given O=C1NC(=O)/C(=C/c2ccc3c(c2)OC(F)(F)O3)S1 , name the class its thermal shift delta Tm places it in.
Given back: III

Asked: Sort into band: COc1cc(N2CCN(C)CC2)ccc1Nc1ncc2c(n1)N(C)c1ccccc1C(=O)N2
Given back: I

Asked: Field: class (thermal shift delta Tm) — entry: CC[C@H](CO)Nc1nc(NCc2ccccc2)c2ncn(C(C)C)c2n1 [Roscovitine (Seliciclib,CYC202)]
Given back: II

Asked: Which band does COc1cc(OC)c(C=C2C(=O)Nc3ccccc32)c(OC)c1 fall in?
Given back: III

Asked: Band for C[C@H](NC(=O)/C(C#N)=C/c1cccc(Br)n1)c1ccccc1 ?
Given back: I

Asked: Band for CCN1/C(=C/C(C)=O)Sc2ccc(OC)cc21 ?
Given back: III

Asked: Note: place this molecule into its band. Item: Cc1csc(-c2nnc(Nc3ccc(Oc4ncccc4-c4ccnc(N)n4)cc3)c3ccccc23)c1
Given back: II

Asked: Which thermal shift delta Tm category applies to Cc1cc(Nc2ncc(Cl)c(Nc3ccccc3S(=O)(=O)C(C)C)n2)c(OC(C)C)cc1C1CCNCC1 [Ceritinib (LDK378)] here?
Given back: I

Asked: Consider CC[C@@H](N)CNc1ccnc(-c2cc(-c3cnn(C)c3)ccc2O)n1 . To which thermal shift delta Tm class does it belong?
Given back: I

Asked: Field: class (thermal shift delta Tm) — entry: C[C@H](Nc1ncnc2[nH]cnc12)c1cc2ccc(F)cc2nc1-c1ccccn1
Given back: II

Asked: Record CC(C)(C)NC(=O)c1cncn1C1CCN(c2ccc(-c3nnc(C(F)(F)F)o3)cn2)CC1 — which class?
Given back: I

Asked: For this molecule, which bin applies? CN1CC(O)C2=C/C(=N/NC(N)=O)C(=O)C=C21 (centres undefined) [Carbazochrome]
Given back: I

Asked: Lab note: sort CN1c2ccccc2C(=O)Nc2cnc(Nc3ccc(N4CCC(O)CC4)cc3)nc21 into the matching thermal shift delta Tm band.
Given back: I

Asked: Determine which band this molecule sits in: N#Cc1c(O)c2c(-c3ccc(-c4ccccc4O)cc3)csc2[nH]c1=O
Given back: III

Asked: Sort CONC(=O)c1ccccc1Nc1cc(Nc2cc(C)nn2C(C)C)ncc1Cl into one of the categories.
Given back: I

Asked: // return the class label for c1cncc(CN2CCC(n3ncc4c(N5CCOCC5)nc(-c5ccc6[nH]ccc6c5)nc43)CC2)c1
Given back: II

Asked: Into which category would you place O=C(O)c1cc(O)c2c(c1)[C@@H]([C@H]1c3cc(C(=O)O)cc(O)c3C(=O)c3c(O[C@@H]4O[C@H](CO)[C@@H](O)[C@H](O)[C@H]4O)cccc31)c1cccc(O[C@@H]3O[C@H](CO)[C@@H](O)[C@H](O)[C@H]3O)c1C2=O [Sennoside B] ?
Given back: III

Asked: Category of O=C(NCCCNc1nc(Nc2cccc(NC(=O)N3CCCC3)c2)ncc1I)c1cccs1 , please.
Given back: I

====

Test system: LOC_OS01G60330-cb001
Assay: thermal shift delta Tm vs DMSO control; higher = stronger stabilization (binding)
Details: 12.5 µM; protein concentration 2 µM
Structures can show the parent of a compound that is named as a salt.
Output fulfilled for thermal shift delta Tm not less than 0.8 °C; output not fulfilled otherwise.

Asked: Reported thermal shift delta Tm at or above 0.8 °C? CC(C)N(CCC(=O)c1ccc2ccccc2c1)Cc1ccccc1
Given back: not fulfilled

Asked: Threshold query (thermal shift delta Tm >= 0.8 °C) on COc1ccc(-c2ccc3c(N4CCOCC4)nc(N4C[C@@H](C)O[C@@H](C)C4)nc3n2)cc1CO
Given back: not fulfilled

Asked: For this molecule, is measured thermal shift delta Tm 0.8 °C or higher? CC[C@@H](N)CNc1ccnc(-c2cc(-c3cnn(C)c3)ccc2O)n1
Given back: not fulfilled

Asked: // inclusive: thermal shift delta Tm at least 0.8 °C? input: O=C(Nc1cnn2ccc(N3CCC[C@@H]3c3cc(F)ccc3F)nc12)N1CC[C@H](O)C1 [Larotrectinib (LOXO-101) sulfate]
Given back: fulfilled

Asked: Exam item: decide whether the reported thermal shift delta Tm for CCOc1ccn(-c2ccc(F)cc2)c(=O)c1C(=O)Nc1ccc(Oc2ccnc(N)c2Cl)c(F)c1 is at least 0.8 °C.
Given back: fulfilled

Asked: // inclusive: thermal shift delta Tm at least 0.8 °C? input: COc1cc2ncnc(Nc3ccc(F)c(Cl)c3)c2cc1OCCCN1CCOCC1 [Gefitinib (ZD1839)]
Given back: not fulfilled

Asked: Decide: is the reported value of thermal shift delta Tm for CCC(=O)Nc1cccc(Oc2nc(Nc3ccc(N4CCN(C)CC4)cc3OC)ncc2Cl)c1 equal to or greater than 0.8 °C?
Given back: fulfilled

Asked: // inclusive: thermal shift delta Tm at least 0.8 °C? input: CNC(=O)c1ccc(Nc2ncc(C(F)(F)F)c(NCc3nccnc3N(C)S(C)(=O)=O)n2)cc1
Given back: fulfilled

Asked: Does the molecule Cn1cnc2c(F)c(Nc3ccc(Br)cc3Cl)c(C(=O)NOCCO)cc21 [Selumetinib (AZD6244)] have recorded thermal shift delta Tm that is 0.8 °C or more?
Given back: not fulfilled

Asked: Tell me whether thermal shift delta Tm is at least 0.8 °C here: O=C(NCCO)c1cccc(-c2cc(Nc3ccc(OC(F)(F)F)cc3)ncn2)c1
Given back: not fulfilled

Asked: State whether the measured thermal shift delta Tm reaches 0.8 °C, counting equality as reaching it, for CC1(C)CNc2cc(NC(=O)c3cccnc3NCc3ccncc3)ccc21 [Motesanib Diphosphate (AMG-706)]
Given back: fulfilled

Asked: Hi team, for FC(F)c1nc2ccccc2n1-c1nc(N2CCOCC2)nc(N2CCOCC2)n1 , is the recorded thermal shift delta Tm at or above 0.8 °C?
Given back: fulfilled

Asked: Identify whether the reported thermal shift delta Tm of the following molecule is 0.8 °C or greater: O=c1c(O)c(-c2cc(O)c(O)c(O)c2)oc2cc(O)cc(O)c12 [Myricetin]
Given back: fulfilled

Asked: Does O=C(O[C@@H]1Cc2c(O)cc(O)cc2O[C@@H]1c1cc(O)c(O)c(O)c1)c1cc(O)c(O)c(O)c1 [(-)-Epigallocatechin Gallate] have a reported thermal shift delta Tm of at least 0.8 °C?
Given back: not fulfilled

Asked: Entry C=CC(=O)N1CC[C@@H](Oc2nc(Nc3ccc(N4CCC(N5CCN(C)CC5)CC4)cc3)c(C(N)=O)nc2CC)C1 [Naquotinib(ASP8273)] : is its thermal shift delta Tm no less than 0.8 °C?
Given back: fulfilled

Asked: Entry Nc1nc(N)c2nc(-c3cccc(O)c3)c(-c3cccc(O)c3)nc2n1 : is its thermal shift delta Tm no less than 0.8 °C?
Given back: fulfilled

Asked: Threshold query (thermal shift delta Tm >= 0.8 °C) on NC(=O)Nc1cc(-c2cccc(F)c2)sc1C(=O)N[C@H]1CCCNC1
Given back: fulfilled

====

Tested on: LOC_OS07G07230-cb001
Assay: thermal shift delta Tm vs DMSO control; higher = stronger stabilization (binding)
Details: 12.5 µM; protein concentration 2 µM
Overview of recorded thermal shift delta Tm for various molecules
Please respond with the number in °C and leave the unit unwritten.

- molecule: "C[C@@H]1COC(Nc2ccc3ncnc(Nc4ccc(OCc5nccs5)c(Cl)c4)c3c2)=N1 [Varlitinib]"
  thermal shift delta Tm, °C: 0.26

Asked: Could you tell me which thermal shift delta Tm is on file for Cc1ccc(-n2nc(C(C)(C)C)cc2NC(=O)NCc2cc(F)ccc2Oc2ccc3c(cnn3CCO)c2)cc1 [Pexmetinib (ARRY-614)] ?
Given back: -0.6

Asked: I am curious: what thermal shift delta Tm value has been reported for CO[C@@H](C(=O)N1Cc2[nH]nc(NC(=O)c3ccc(N4CCN(C)CC4)cc3)c2C1)c1ccccc1 ?
Given back: 0

Asked: Need thermal shift delta Tm, item CN1CCN(c2ccc(Nc3cc(-c4cccc(-n5ccc6cc(C7CC7)cc(F)c6c5=O)c4CO)cn(C)c3=O)nc2)CC1
Given back: 0.61

FYI, the data here is from the supplement of paper PMC9694430.
